These measurements were taken from ChEMBL document CHEMBL1146048.

pKi values for the compounds below.
- System Tested: GABA-A receptor; alpha-3/beta-3/gamma-2 (Homo sapiens, UniProt P18507+P28472+P34903)
- Sequence (P18507 whole entry): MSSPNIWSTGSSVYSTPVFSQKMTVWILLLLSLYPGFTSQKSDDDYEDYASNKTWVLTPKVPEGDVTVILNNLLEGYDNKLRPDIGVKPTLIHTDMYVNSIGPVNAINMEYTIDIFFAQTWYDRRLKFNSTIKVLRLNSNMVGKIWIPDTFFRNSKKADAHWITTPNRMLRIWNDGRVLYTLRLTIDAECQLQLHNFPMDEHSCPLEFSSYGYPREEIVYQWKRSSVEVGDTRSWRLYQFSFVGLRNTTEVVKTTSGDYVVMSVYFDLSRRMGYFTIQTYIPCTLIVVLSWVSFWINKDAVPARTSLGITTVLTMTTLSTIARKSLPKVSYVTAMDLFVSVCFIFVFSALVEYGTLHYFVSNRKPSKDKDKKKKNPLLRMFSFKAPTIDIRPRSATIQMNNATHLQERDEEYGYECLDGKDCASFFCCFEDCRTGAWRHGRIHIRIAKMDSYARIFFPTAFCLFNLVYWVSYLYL
- Sequence (P28472 whole entry): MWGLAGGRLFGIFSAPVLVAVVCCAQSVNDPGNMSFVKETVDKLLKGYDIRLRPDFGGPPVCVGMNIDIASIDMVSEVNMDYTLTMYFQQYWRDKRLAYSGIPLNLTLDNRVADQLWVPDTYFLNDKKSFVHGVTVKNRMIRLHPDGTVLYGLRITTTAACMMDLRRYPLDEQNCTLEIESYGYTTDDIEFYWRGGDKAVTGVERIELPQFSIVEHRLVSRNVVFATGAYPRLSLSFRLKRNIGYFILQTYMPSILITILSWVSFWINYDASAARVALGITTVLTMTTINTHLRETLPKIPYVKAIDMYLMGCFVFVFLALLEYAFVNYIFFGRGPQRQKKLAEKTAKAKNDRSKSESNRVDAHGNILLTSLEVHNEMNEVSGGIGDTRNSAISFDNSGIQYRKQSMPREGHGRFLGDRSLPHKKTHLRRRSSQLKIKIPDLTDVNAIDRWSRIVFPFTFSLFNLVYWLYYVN
- Sequence (P34903 whole entry): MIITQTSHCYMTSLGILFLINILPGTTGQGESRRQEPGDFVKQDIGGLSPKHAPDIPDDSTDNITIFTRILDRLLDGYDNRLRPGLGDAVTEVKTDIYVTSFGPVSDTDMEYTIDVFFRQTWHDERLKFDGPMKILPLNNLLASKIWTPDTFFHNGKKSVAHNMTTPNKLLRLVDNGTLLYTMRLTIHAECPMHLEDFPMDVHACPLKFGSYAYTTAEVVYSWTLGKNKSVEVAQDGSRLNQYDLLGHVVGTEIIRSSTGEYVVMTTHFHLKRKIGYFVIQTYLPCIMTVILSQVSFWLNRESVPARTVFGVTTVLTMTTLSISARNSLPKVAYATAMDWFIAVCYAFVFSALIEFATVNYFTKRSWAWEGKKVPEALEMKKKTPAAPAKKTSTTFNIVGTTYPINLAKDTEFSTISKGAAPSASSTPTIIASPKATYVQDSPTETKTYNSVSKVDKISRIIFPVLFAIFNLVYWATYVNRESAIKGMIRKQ
- Experimental Protocol: Displacement of [3H]Ro-151788 from human recombinant GABA-Aalpha3 receptor plus beta3gamma2
- Type: protein-complex assay
pKi: −log10 of the molar value.
Assay Readout: pKi

INSERT INTO results (smiles_data, system_tested, reported_measurement) VALUES
  ('CC(C)(O)c1cnn2c(-c3ccc(F)c(-c4c(F)cccc4C#N)c3)cnc2n1', 'GABA-A receptor; alpha-3/beta-3/gamma-2 (Homo sapiens, UniProt P18507+P28472+P34903)', 8.82),
  ('Cn1cnn2c(-c3ccc(F)c(-c4ccc(F)cc4C#N)c3)cnc2c1=O', 'GABA-A receptor; alpha-3/beta-3/gamma-2 (Homo sapiens, UniProt P18507+P28472+P34903)', 8.34),
  ('Cn1ccn2c(-c3ccc(F)c(-c4ccc(F)cc4C#N)c3)cnc2c1=O', 'GABA-A receptor; alpha-3/beta-3/gamma-2 (Homo sapiens, UniProt P18507+P28472+P34903)', 8.72),
  ('CCn1ncn2c(-c3ccc(F)c(-c4ccc(F)cc4C#N)c3)cnc2c1=O', 'GABA-A receptor; alpha-3/beta-3/gamma-2 (Homo sapiens, UniProt P18507+P28472+P34903)', 8.47),
  ('CCn1ccn2c(-c3ccc(F)c(-c4ccc(F)cc4C#N)c3)cnc2c1=O', 'GABA-A receptor; alpha-3/beta-3/gamma-2 (Homo sapiens, UniProt P18507+P28472+P34903)', 9.05),
  ('Cn1ccn2c(-c3ccc(F)c(-c4c(F)cccc4C#N)c3)cnc2c1=O', 'GABA-A receptor; alpha-3/beta-3/gamma-2 (Homo sapiens, UniProt P18507+P28472+P34903)', 9.23),
  ('Cn1ccn2c(-c3ccc(F)c(-c4ccccc4C#N)c3)cnc2c1=O', 'GABA-A receptor; alpha-3/beta-3/gamma-2 (Homo sapiens, UniProt P18507+P28472+P34903)', 9.15),
  ('Cn1ncn2c(-c3ccc(F)c(-c4ccc(F)cc4C#N)c3)cnc2c1=O', 'GABA-A receptor; alpha-3/beta-3/gamma-2 (Homo sapiens, UniProt P18507+P28472+P34903)', 8.33);
